Readings of GI50 for the listed compounds
# Tested on: MDA-MB-231 breast
# experimental_details: NCI tumour cell line growth inhibition, 48 h

**Query** Give the measured GI50 of COc1ccc(CC(=O)c2ccc(O)cc2O)cc1 .
**Result** > 100 µM

**Query** Give the measured GI50 of Cc1nn(-c2ccc([N+](=O)[O-])cc2)c2ncnc(N/N=C/c3ccccc3O)c12 .
**Result** 0.482 µM

**Query** Give the measured GI50 of COC(=O)Nc1nc2ccc(Oc3cccc(NC(=O)Nc4cc(C(F)(F)F)ccc4F)c3)cc2[nH]1 .
**Result** 11.4 µM

**Query** Give the measured GI50 of COc1ccc(/C=C(\C(=O)NCc2cccnc2)S(=O)(=O)c2ccccc2)cc1OC .
**Result** 2.93 µM

**Query** Give the measured GI50 of CC1=C(CCC(C)NCc2ccc(OCCCN3CCCCC3)cc2)C(C)(C)CCC1 (stereo not given) .
**Result** 1.02 µM

====

# System: OVCAR-4 ovarian
# experimental_details: NCI tumour cell line growth inhibition, 48 h
Readings of TGI for the listed compounds

// solved cases for TGI follow
compound	measurement_target	result
Cc1nn(C)c(COc2ccc(N3CCN(S(=O)(=O)N(C)C)CC3)cc2)c1-c1cccc2c(CCCOc3cccc4ccccc34)c(C(=O)O)n(CCN3CCOCC3)c12	OVCAR-4 ovarian	14.1 µM
CCN1CN(c2ccccc2)C2(CCN(CC(CC3OCCO3)c3ccc(F)cc3)CC2)C1=O (stereo not drawn)	OVCAR-4 ovarian	36.3 µM
O=C(N/C(=C\c1ccc(/C=C(\NC(=O)c2ccccc2)c2nc3ccccc3[nH]2)cc1)c1nc2ccccc2[nH]1)c1ccccc1	OVCAR-4 ovarian	> 100 µM
C[CH2][Sn]([CH2]C)([O]C(=O)c1ccccc1F)[O][Sn]([CH2]C)([CH2]C)[O]C(=O)c1ccccc1F	OVCAR-4 ovarian	> 82.8 µM
CC(C)Oc1c(-c2ccc(F)cc2)c(O)c2c3c1oc(=O)n3C=CC2C (stereo not drawn)	OVCAR-4 ovarian	23.3 µM
O=C(c1ccccc1)N1C(=S)N(c2ccccn2)C(=Nc2ccccc2)C1=Nc1ccccc1	OVCAR-4 ovarian	32.5 µM

Next:
**Query** Lab note: need TGI for CCOC(=O)c1c(NC(=S)Nc2ccccc2)sc2c1CCOC2 on OVCAR-4 ovarian, anyone have it?
**Result** > 100 µM

====

# Tested on: SK-OV-3 ovarian
# experimental_details: NCI tumour cell line growth inhibition, 48 h
readout_label: GI50

// solved cases for GI50 follow
> print(dat)
                            chemical.smiles  readout.label    result
1  Cc1cnc(CNC(=O)c2c(=O)c3ccc(N4CCCN(C)CC4)nc3n3c2sc2ccccc23)cn1           GI50   12.5 µM
2  CC(=O)[O][Sn]([CH2]c1ccccc1)([CH2]c1ccccc1)[CH2]c1ccccc1           GI50   > 10 µM
3            COc1ccc(CC(=O)c2ccc(O)cc2O)cc1           GI50  > 100 µM
4  CCOC(=O)c1cc2c(n1Cc1cc(OC)c(OC)c(OC)c1)-c1oncc1CCC2           GI50  0.185 µM

Next:
**Query** Give the measured GI50 of COc1cc(/C=C/C(=O)c2ccc(F)cc2)ccc1OCCCN1CCN(CC(=O)Nc2ccc(Cl)cc2C(=O)c2ccccc2Cl)CC1 .
**Result** 17.4 µM

====

# Test system: K-562 leukemia
# experimental_details: NCI tumour cell line growth inhibition, 48 h
Readings of TGI for the listed compounds

// solved cases for TGI follow
> print(dat)
                                   compound  measurement.target    result
1  O=C(N/N=C(/COc1ccccc1)N=Cc1cccnc1)c1ccncc1      K-562 leukemia  > 100 µM
2  CCN1C(=O)N(CC)C2C1NN=c1s/c(=C\c3ccccn3)c(=O)n12 (stereo not given)      K-562 leukemia  > 100 µM
3  N#Cc1nc2c(S(=O)(=O)c3ccc(Cl)cc3)c(N)n(CCCN3CCOCC3)c2nc1C#N      K-562 leukemia     31 µM
4  Nc1c(C(=O)c2cccc(-c3cccnc3)c2)cnn1-c1ccc(F)cc1F      K-562 leukemia   24.5 µM
5  CCCCCCCCCCCCCCCCCCOCC(O)COP(=O)(O)OCC1OC(n2ccc(N)nc2=O)C(O)C1O (stereo not given)      K-562 leukemia  > 100 µM

**Query** Give the measured TGI of c1ccc(CSC2(SCc3ccccc3)CCCCC2)cc1 .
**Result** > 10 µM

**Query** Give the measured TGI of OCCn1cnc2c(SCc3ccccc3)ncnc21 .
**Result** > 100 µM

**Query** Give the measured TGI of CC(=O)[CH-]C(=O)c1ccccc1.CC(=O)[CH-]C(=O)c1ccccc1.CC(=O)[CH-]C(=O)c1ccccc1.[In+3] .
**Result** > 100 µM

**Query** Give the measured TGI of COc1ccccc1CNCCCN1C(=O)c2ccc3c4c(ccc(c24)C1=O)C(=O)N(CCCN)C3=O .
**Result** 3.35 µM

**Query** Give the measured TGI of COc1cc([N+](=O)[O-])c(OC)cc1-c1nc2sccn2c1/C=N/N=C(N)N .
**Result** > 100 µM

====

# Test system: NCI-H226 lung
# experimental_details: NCI tumour cell line growth inhibition, 48 h
Readings of GI50 for the listed molecules

> print(dat)
                            chemical.smiles    result
1  COc1cnc2c(c1)C(=O)c1c-2n(CCCNC2=NCCS2)c(=O)c2cc(Cl)ccc12  0.687 µM
2  O=C1C(SCCO)=C(SCCO)C(=O)N1c1ccc(-c2ccccc2)cc1   23.1 µM
3  c1ccc2[nH]c(-c3cc(-c4ccc5c(c4)OCO5)n[nH]3)nc2c1    4.2 µM

Next:
**Query** Give the measured GI50 of COc1ccc(CC(=O)c2ccc(O)cc2O)cc1 .
**Result** > 100 µM

====

# Tested on: SNB-78 CNS
# experimental_details: NCI tumour cell line growth inhibition, 48 h
Readings of TGI for the listed molecules
The reply should be a number in µM, with the unit left off.

// solved cases for TGI follow
> print(dat)
                                   molecule  readout.label  unit.descriptor  recorded.number
1  CNC(=O)OCc1c2ccncc2c(C)c2c1[nH]c1ccc(OC)cc12            TGI               µM            0.681
2  CCOc1ccc(NC(=O)C(=O)C(C(=O)c2ccc3ccccc3c2)C2OC(=O)c3ccccc32)cc1 (configuration not stated)            TGI               µM             64.9
3  O=C(O)c1nc(-c2ccc(Cl)c(Cl)c2)nc2ccc(Cl)cc12            TGI               µM             77.6

Next:
**Query** Give the measured TGI of COc1cc2c(cc1OC)[C@@H](Nc1ccc(F)cc1)C1COC(=O)[C@@H]1C2c1cc(OC)c(O)c(OC)c1 (some centres not stated) .
**Result** 97.5

====

# System: CCRF-CEM leukemia
# experimental_details: NCI tumour cell line growth inhibition, 48 h
readout_label: TGI

// solved cases for TGI follow
molecule	TGI
Cc1nn(-c2ccc([N+](=O)[O-])cc2)c2ncnc(N/N=C/c3ccccc3O)c12	> 100 µM
CCc1ccccc1NC(=O)/C(N=O)=C(/C)O	> 100 µM
COc1cc(C2c3cc4c(cc3[C@@H](NCCN3CCOCC3)C3COC(=O)[C@H]23)OCO4)cc(OC)c1O (stereo partly drawn)	> 75 µM
O=[N+]([O-])c1ccc(N=Nc2ccc(O)c3ccccc23)cc1	35.7 µM
Cc1cnc2sn(-c3ccc(Br)cc3)c(=O)c2c1	69.7 µM
O=C(O)c1nc(-c2ccc(Cl)c(Cl)c2)nc2ccc(Cl)cc12	> 10 µM

**Query** Give the measured TGI of COc1ccc(C(=O)/C=C/c2cccc(Nc3ccnc4cc(Cl)ccc34)c2)cc1 .
**Result** > 100 µM

**Query** Give the measured TGI of C=C1CC[C@@H]2[C@](C)(COC(C)=O)[C@H](OC(C)=O)CC[C@@]2(C)[C@@H]1CC(Nc1ccc(S(=O)(=O)Nc2ccc(Cl)nn2)cc1)C1=CCOC1=O (stereo partly drawn) .
**Result** 2.6 µM

**Query** Give the measured TGI of O=C(Nc1ccc(Oc2cccc(F)c2)c(Cl)c1)c1cnccn1 .
**Result** > 50 µM

**Query** Give the measured TGI of CN1CC2CN(Cc3ccccc3)CCN2c2cccnc21 (stereo not drawn) .
**Result** > 100 µM

**Query** Give the measured TGI of O=C1/C(=N\O)S(=O)(=O)c2ccccc21 .
**Result** > 100 µM

**Query** Give the measured TGI of COc1ccccc1CNCCCN1C(=O)c2ccc3c4c(ccc(c24)C1=O)C(=O)N(CCCN)C3=O .
**Result** 2.76 µM

**Query** Give the measured TGI of CCn1cnnc1-c1nsc2ccccc12 .
**Result** > 100 µM

**Query** Give the measured TGI of CC(=O)OC(C)(C)CCC(=O)[C@](C)(O)[C@H]1[C@H](O)C[C@@]2(C)[C@@H]3CCc4c(cc(OC5OC(CO)C(O)C(O)C5O)c(O)c4C)C3(C)C(=O)C[C@]12C (stereo partly drawn) .
**Result** > 100 µM

**Query** Give the measured TGI of CC(Cl)CC(=O)OCC1CCCN2CCCCC12 (stereo not drawn) .
**Result** > 100 µM

**Query** Give the measured TGI of COc1ccc(/C=C2\C[C@H]3[C@@H]4CCC5=CC(=O)CC[C@]5(C)[C@H]4CC[C@]3(C)C2=O)cc1OC .
**Result** 47.2 µM

**Query** Give the measured TGI of O=c1oc2cc(O)ccc2c(O)c1Cc1c(O)c2ccc(O)cc2oc1=O .
**Result** > 100 µM

**Query** Give the measured TGI of CNC(=O)OCc1c2ccncc2c(C)c2c1[nH]c1ccc(OC)cc12 .
**Result** 1.29 µM

**Query** Give the measured TGI of O1[As]2O[As]3O[As]1O[As](O2)O3 .
**Result** 1.11 µM
